All values here come from ChEMBL document CHEMBL3217563.

System: Mus musculus
Test: Antimalarial activity against Plasmodium berghei ANKA infected in po dosed mouse assessed as suppression of parasitaemia administered for 3 days measured on day 4 relative to control
Type: functional
Listing of entries alongside the reported ED50.

{"columns": ["MOLECULE", "TGT", "VALUE_REPORTED"],
 "data": [
  ["Cc1ccc(S(=O)(=O)O)cc1.NC1CCN(C2CCC3(CC2)OOC2(OO3)C3CC4CC(C3)CC2C4)CC1 (stereo not given)", "Mus musculus", "3.7 mg/kg"]
]}

Query block: # input molecule: C1CC(NC2CCC3(CC2)OOC2(OO3)C3CC4CC(C3)CC2C4)CCO1.Cl (stereo not given) ; wanted: its ED50
Result block: 2.3 mg/kg
